targetOrSystem: Ba/F3 cells containing Ros1 L2026M (Homo sapiens, UniProt P08922, L2026M, cells depend on it, form not given)
Sequence (P08922 whole entry L2026M, form open): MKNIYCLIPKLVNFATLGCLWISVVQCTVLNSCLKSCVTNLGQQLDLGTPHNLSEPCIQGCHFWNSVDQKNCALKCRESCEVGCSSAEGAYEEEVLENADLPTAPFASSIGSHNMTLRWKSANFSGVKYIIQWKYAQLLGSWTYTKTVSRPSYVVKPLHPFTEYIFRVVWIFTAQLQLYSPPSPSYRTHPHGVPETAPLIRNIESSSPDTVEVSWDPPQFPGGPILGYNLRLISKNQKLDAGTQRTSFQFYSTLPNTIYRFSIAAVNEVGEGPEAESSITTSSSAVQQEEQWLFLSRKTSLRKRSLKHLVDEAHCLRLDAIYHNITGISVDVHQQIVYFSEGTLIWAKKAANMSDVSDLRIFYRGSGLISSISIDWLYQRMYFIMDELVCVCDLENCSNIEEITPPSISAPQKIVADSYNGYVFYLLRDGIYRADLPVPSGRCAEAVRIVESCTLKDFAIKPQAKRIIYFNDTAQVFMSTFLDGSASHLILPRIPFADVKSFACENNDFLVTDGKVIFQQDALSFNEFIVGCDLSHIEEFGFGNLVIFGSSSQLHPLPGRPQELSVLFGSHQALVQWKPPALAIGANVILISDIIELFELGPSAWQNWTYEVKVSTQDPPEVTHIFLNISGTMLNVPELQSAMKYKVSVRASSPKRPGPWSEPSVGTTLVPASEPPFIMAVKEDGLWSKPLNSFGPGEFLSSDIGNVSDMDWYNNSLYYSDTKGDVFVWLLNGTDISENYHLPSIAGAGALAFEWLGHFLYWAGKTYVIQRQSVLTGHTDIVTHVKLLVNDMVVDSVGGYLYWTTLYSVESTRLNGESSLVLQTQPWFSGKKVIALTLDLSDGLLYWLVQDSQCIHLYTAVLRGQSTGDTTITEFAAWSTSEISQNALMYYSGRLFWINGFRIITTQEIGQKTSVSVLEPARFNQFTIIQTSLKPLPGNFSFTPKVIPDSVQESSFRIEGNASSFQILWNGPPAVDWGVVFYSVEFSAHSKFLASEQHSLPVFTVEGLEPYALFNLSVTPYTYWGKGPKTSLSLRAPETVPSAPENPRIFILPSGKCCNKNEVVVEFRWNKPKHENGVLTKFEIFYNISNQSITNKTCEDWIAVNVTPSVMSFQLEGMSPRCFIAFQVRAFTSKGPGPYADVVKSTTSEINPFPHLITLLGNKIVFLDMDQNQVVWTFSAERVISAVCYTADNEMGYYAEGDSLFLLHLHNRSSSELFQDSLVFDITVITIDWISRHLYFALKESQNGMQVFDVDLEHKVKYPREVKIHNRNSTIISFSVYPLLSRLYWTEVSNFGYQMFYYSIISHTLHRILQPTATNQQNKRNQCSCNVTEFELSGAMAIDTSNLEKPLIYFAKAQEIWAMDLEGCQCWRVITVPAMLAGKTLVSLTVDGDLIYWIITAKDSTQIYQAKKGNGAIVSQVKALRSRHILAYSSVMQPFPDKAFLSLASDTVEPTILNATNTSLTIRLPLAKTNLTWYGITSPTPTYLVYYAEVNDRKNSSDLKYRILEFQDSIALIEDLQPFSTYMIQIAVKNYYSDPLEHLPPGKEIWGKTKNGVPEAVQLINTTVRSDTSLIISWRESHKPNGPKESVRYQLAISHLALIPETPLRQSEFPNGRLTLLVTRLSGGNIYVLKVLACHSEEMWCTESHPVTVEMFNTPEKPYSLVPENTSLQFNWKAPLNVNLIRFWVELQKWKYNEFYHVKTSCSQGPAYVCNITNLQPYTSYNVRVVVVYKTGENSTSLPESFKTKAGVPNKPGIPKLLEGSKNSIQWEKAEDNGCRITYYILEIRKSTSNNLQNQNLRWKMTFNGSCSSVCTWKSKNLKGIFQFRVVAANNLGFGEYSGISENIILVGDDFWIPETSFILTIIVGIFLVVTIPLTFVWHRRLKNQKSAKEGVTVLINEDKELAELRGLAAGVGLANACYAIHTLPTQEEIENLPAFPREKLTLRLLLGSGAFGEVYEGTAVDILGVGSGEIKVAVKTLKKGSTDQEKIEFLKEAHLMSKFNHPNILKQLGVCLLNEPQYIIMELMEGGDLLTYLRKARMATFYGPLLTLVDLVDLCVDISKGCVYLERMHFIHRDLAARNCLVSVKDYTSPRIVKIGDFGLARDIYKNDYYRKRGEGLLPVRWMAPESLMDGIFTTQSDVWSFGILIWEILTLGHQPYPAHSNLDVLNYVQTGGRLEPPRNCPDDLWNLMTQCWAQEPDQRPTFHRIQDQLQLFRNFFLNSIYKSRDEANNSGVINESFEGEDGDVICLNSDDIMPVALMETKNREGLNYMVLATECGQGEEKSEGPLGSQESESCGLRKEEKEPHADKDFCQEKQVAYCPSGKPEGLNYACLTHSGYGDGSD
protocolText: Ba/F3-Ros1 cell proliferation assay, L2026M gatekeeper mutant
Assay type: cell-based, murine
conditionParameters: -log IC50 (M), no IL-3
Values of Ba/F3 Ros1 L2026M (-IL-3) pIC50 greater than or equal to 7 map to true; values below map to false.

In: Could you tell me if the measured Ba/F3 Ros1 L2026M (-IL-3) pIC50 of c1cc(-c2nn3c(c2-c2ccc(OCc4ccc(C5CC5)cc4)cc2)NCC3)ccn1 [Co. 7] reaches 7 or more?
Out: true

In: Could you tell me if the measured Ba/F3 Ros1 L2026M (-IL-3) pIC50 of CC(C)c1ccc(COc2ccc(-c3c(-c4ccncc4)nn4c3NCC4)cc2)cc1C#N [Co. 6] reaches 7 or more?
Out: false

In: Could you tell me if the measured Ba/F3 Ros1 L2026M (-IL-3) pIC50 of CNC(=O)C1CCNc2c(-c3ccc(OCc4ccc(C(C)C)cc4)cc3)c(-c3ccncc3)nn21 (stereo not shown) [Co. 26] reaches 7 or more?
Out: false
